System: P388 leukemia ip, CD2F1 mice, survival T/C
Test: NCI In Vivo Anticancer Drug Screen. Data for tumor model P388 Leukemia (intraperitoneal) in CD2F1 (CDF1) mice
Conditions: endpoint: median survival time; dose: 15.0 mg/kg/injection; schedule: Q01DX005 (ip); vehicle: saline with Tween-80; higher = longer survival
Procedure: The antitumor activity of compounds was measured in mice bearing transplantable tumors. Survival or tumor size were measured and the results are expressed as the measurement made in the treated group (T) divided by the measurement made in the vehicle treated control group (C). The tumor model used in this assay is P388 Leukemia (intraperitoneal) in CD2F1 (CDF1) mice
Inconclusive results and toxic doses are left out.
Quantity Kind: T/C

# compound COc1ccc(C(C)=O)cc1CSC(=S)N1CCSCC1 ; its T/C = 104 % of control

Lab book: T/C of Nc1nc(Cl)c(N=Nc2ccccc2)c(=O)[nH]1 noted as 105 % of control

GET /value?item= CCCCCCCCSC(=O)n1cc(F)c(=O)[nH]c1=O &field=T/C returns 103 % of control

The compound listed as O=C1c2ccc(-c3ccccc3)cc2C(=O)c2cc3c(cc21)OCO3 shows T/C equal to 100 % of control

# compound C[N+]1(Cc2ccccc2)CCC(O)(C(=O)c2ccccc2)CC1 (stereo unspecified) ; its T/C = 98 % of control

Entry COC(=O)c1nc(NN)[nH]c(=O)c1C — recorded T/C = 103 % of control
